Target: T1, Cynomolgus TCR(AEA41865/AEA41866)-zipper protein (cynomolgus monkey)
T1 construct: also called cyTCR-zipper protein; cynoTCR zipper
T1 TCR alpha: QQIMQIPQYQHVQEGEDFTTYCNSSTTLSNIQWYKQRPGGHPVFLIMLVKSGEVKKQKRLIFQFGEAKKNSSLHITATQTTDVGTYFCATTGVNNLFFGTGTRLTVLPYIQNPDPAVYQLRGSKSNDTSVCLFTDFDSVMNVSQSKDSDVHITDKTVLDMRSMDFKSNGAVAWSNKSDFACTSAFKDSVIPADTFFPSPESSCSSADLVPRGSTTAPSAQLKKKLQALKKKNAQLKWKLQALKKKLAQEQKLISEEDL
T1 TCR beta: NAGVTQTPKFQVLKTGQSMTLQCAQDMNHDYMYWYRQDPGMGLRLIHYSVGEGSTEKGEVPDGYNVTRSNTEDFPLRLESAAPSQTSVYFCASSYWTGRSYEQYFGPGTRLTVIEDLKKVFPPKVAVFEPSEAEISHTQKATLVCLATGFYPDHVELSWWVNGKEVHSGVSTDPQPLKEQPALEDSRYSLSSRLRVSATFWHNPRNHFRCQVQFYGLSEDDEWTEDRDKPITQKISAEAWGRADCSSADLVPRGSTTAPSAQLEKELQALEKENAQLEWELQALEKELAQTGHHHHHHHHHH
Test: SPR ProteOn off-rate screen
Outcome: Satisfied for koff of at least 0.008 s⁻¹; Not satisfied for anything lower.

Example entries begin here.
- binder: "T017000177 (VHH) VHH: EVQLVESGGGVVQPGGSLRLSCVASGSVHKINFLGWYRQAPGKEREKVAHISIGDQTDYADSAKGRFTISRDESKNMVYLQMNSLRPEDTALYFCRAFSRIYPYDYWGQGTLVTVSS"
  label value: "Not satisfied"
- binder: "T017000179 (VHH) VHH: EVQLVESGGGVVQPGGSLRLSCVASGDVHKINFLTWYRQAPGKEREKVAHISIGDQTDYADSAKGRFTISRDESKNMVYLQMNSLRPEDTALYFCRAFSRIYPYDYWGQGTLVTVSS"
  label value: "Not satisfied"
- binder: "T017000161 (VHH) VHH: EVQLVESGGGVVQPGGSLRLSCVASGEVHKINFLGWYRQAPGKEREKVAHISIGDQTDYADSAKGRFTISRDESKNMVYLQMNSLRPEDTALYFCRAFSRIYPYDYWGQGTLVTVSS"
  label value: "Not satisfied"
- binder: "T017000166 (VHH) VHH: EVQLVESGGGVVQPGGSLRLSCVASGDVHKINFYGWYRQAPGKEREKVAHISIGDQTDYADSAKGRFTISRDESKNMVYLQMNSLRPEDTALYFCRAFSRIYPYDYWGQGTLVTVSS"
  label value: "Satisfied"
- binder: "T017000208 (VHH) VHH: EVQLVESGGGVVQPGGSLRLSCVASYDVHKINFLGWYRQAPGKEREKVAHISIGDQTDYADSAKGRFTISRDESKNMVYLQMNSLRPEDTALYFCRAFSRIYPYDYWGQGTLVTVSS"
  label value: "Satisfied"

Query binder follows.
Q: Tell me whether koff is at least 0.008 s⁻¹ here: T017000164 (VHH) VHH: EVQLVESGGGVVQPGGSLRLSCVASGYVHKINFLGWYRQAPGKEREKVAHISIGDQTDYADSAKGRFTISRDESKNMVYLQMNSLRPEDTALYFCRAFSRIYPYDYWGQGTLVTVSS
Result: Not satisfied
